biological target: RAR γ (Homo sapiens); test: RAR γ EC50/(efficacy); format: cell-based; conditions: value in brackets of cell EC50/(EFFICACY)/Kd
Parameter RAR γ (EFFICACY): see the listing below.

Solved entries (count: 5):
molecule | measured-on | RAR γ (EFFICACY)
C=Cc1c(C)c(C#Cc2ccc(CC(=O)O)cc2)cc(C(C)(C)C)c1OC(C)C | RAR γ (Homo sapiens) | 65
C=Cc1cc(C#Cc2ccc(CC(=O)O)cc2)cc2c1C(N(C)C1CC1)CCC2(C)C (centres unmarked) | RAR γ (Homo sapiens) | 35
Cc1ccc(C(C)(C)C)cc1C#Cc1ccc(/C=C/C(=O)O)cc1 | RAR γ (Homo sapiens) | 15
CCOC(=O)C1CCC(C)(C)c2cc(C#Cc3ccc(CC(=O)O)cc3)c(C)cc21 (centres unmarked) | RAR γ (Homo sapiens) | 35
CC1(C)CC2(CC2)Oc2c(C3CC3)cc(C#Cc3ccc(/C=C(\Cl)C(=O)O)cc3)cc21 | RAR γ (Homo sapiens) | 15

QUERY: Please provide the recorded RAR γ (EFFICACY) for C#Cc1c(C)c(C#Cc2ccc(CC(=O)O)cc2)cc(C(C)(C)C)c1OC(C)C , tested on RAR γ (Homo sapiens).
RESULT: 68

QUERY: Entry C#CCc1c(C)c(C#Cc2ccc(CC(=O)O)cc2)cc(C(C)(C)C)c1OC(C)C , system RAR γ (Homo sapiens): what RAR γ (EFFICACY) was measured?
RESULT: 66

QUERY: Any idea what RAR γ (EFFICACY) came out for C/C(=C\c1ccc(C#Cc2cccc(CN(C)C3CC3)c2)cc1)C(=O)O on RAR γ (Homo sapiens)?
RESULT: 10

---

Molecular target: RAR α (Homo sapiens, UniProt P10276)
Sequence (P10276 1-462): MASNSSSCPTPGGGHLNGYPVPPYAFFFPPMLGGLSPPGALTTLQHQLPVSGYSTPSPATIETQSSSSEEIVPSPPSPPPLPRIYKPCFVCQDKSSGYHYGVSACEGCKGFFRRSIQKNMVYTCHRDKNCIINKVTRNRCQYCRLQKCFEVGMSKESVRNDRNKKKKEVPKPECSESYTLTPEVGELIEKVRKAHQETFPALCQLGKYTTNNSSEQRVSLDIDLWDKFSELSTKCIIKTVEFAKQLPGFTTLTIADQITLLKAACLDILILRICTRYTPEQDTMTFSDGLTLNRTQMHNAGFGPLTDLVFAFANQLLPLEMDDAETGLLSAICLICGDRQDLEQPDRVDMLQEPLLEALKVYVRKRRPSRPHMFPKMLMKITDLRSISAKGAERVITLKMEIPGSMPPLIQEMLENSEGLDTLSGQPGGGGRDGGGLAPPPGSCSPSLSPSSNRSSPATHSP
Test: RAR α Kd
Assay type: binding
Details: last item of cell EC50/(EFFICACY)/Kd
measured-attribute: pKd
Expect pKd as a plain number equal to -log10 of the molar concentration.

QUERY: Recorded pKd for C#CCc1c(C)c(C#Cc2ccc(CC(=O)O)cc2)cc(C(C)(C)C)c1OC(C)C [Compound 47] , please?
RESULT: 5.65

QUERY: // query pKd value for entry COc1cc(C#Cc2ccc(C(C)C(=O)O)cc2)cc2c1C(N(C)C1CC1)CCC2(C)C (centres unmarked) [Compound 27]
RESULT: 6.93

QUERY: Which pKd value is on record for CC(C)(C)c1cccc(C#Cc2ccc(/C=C/C(=O)O)cc2)c1 [Compound 35] ?
RESULT: 5.71

QUERY: Which pKd value is on record for CCC1(CC)CC(C)(C)c2cc(C#Cc3ccc(C(C)(C)C(=O)O)cc3)cc(C(C)C)c2O1 [Compound 14] ?
RESULT: 5.29

QUERY: Endpoint output: pKd of CC(C)Oc1cc(C#Cc2ccc(CC(=O)O)cc2)cc2c1OC(C)(C)CC2(C)C [Compound 13] . Value?
RESULT: 6.40

---

biological target: CYP26A (P450RAI-1) (Homo sapiens); construct: expressed in transfected cells; host or cells: HeLa; experiment: Cell-based inhibition of RA metabolism in CYP26A stably transfected HeLa cells; conditions: stably transfected HeLa cells, [3H]-RA, 3 hours at 37° C.; read-out: P450RAI-1 Whole cell IC50
Sequence (O43174 whole entry): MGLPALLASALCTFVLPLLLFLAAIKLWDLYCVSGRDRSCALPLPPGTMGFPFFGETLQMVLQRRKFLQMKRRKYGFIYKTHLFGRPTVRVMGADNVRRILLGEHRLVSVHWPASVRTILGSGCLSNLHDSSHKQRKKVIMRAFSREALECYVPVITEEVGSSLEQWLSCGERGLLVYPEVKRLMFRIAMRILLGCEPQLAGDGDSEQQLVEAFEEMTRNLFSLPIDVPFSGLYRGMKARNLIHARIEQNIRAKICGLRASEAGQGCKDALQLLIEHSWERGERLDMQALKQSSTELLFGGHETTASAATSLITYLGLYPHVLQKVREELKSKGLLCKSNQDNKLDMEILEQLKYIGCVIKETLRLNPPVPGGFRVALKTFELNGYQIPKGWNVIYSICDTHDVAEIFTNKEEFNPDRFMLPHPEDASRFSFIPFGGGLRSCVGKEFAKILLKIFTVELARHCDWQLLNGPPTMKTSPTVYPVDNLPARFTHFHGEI
measured-attribute: pIC50
Please express pIC50 as -log10 of the molar concentration.

compound | pIC50
CC(C)N(Cc1cc(C(=O)Oc2ccc(CC(=O)O)cc2)cc2c1OC(C)(C)CC2(C)C)C1CC1 | 5.60
COc1cc(C#Cc2ccc(/C=C/C(=O)O)cc2)cc2c1C(N(C)C1CC1)CCC2(C)C (stereo not shown) | 6.22
CN(Cc1cc(C#Cc2ccc(C(C)(C)C(=O)O)cc2)cc2c1OC(C)(C)CC2(C)C)C1CC1 | 6.92
CC(C)(C)COC(=O)c1cc(C#Cc2ccc(CC(=O)O)cc2)cc2c1OC(C)(C)CC2(C)C | 5.15

QUERY: Endpoint output: pIC50 of C/C(=C/C(=O)O)c1ccc(C#Cc2cccc(CN(C)C3CC3)c2)cc1 . Value?
RESULT: 6.36

QUERY: Recorded pIC50 of CN(C1CC1)C1CCC(C)(C)c2cc(C#Cc3ccc(/C=C/C(=O)O)cc3)cc(C3CC3)c21 (stereo not shown) , please.
RESULT: 6.15

QUERY: Any idea what its pIC50 is? The compound is CCOC(=O)C1=CCC(C)(C)c2cc(C#Cc3ccc(CC(=O)O)c(F)c3)ccc21
RESULT: 7.22

QUERY: What value of pIC50 has been recorded for this entry: CCC1(CC)CC(C)(C)c2cc(C#Cc3ccc(C(C)(C)C(=O)O)cc3)cc(C(C)C)c2O1
RESULT: 6.15

QUERY: Report pIC50 for Cc1cc2c(cc1C#Cc1ccc(C(C)(C)C(=O)O)cc1)C(C)(C)CCC2N(C)C1CC1 (stereo not shown) please.
RESULT: 6.30

QUERY: // pIC50 lookup, key: CC(C)OC(=O)c1cccc(C#Cc2ccc(CC(=O)O)c(F)c2)c1
RESULT: 6.15

QUERY: Need pIC50 of CC(C)(C)OC(=O)c1cc(C#Cc2ccc(CC(=O)O)cc2)cc2c1OC(C)(C)CC2(C)C , thanks.
RESULT: 5.54

QUERY: Entry C=Cc1cc(C#Cc2ccc(CC(=O)O)cc2)cc2c1C(=O)CCC2(C)C has what pIC50?
RESULT: 8.15

QUERY: I am curious: what pIC50 value has been reported for CC(C(=O)O)c1ccc(C#Cc2cc(CN(C)C3CC3)c3c(c2)C(C)(C)CC(C)(C)O3)cc1 (stereo not shown) ?
RESULT: 7.30

QUERY: Need pIC50 of C#Cc1cc(C#Cc2ccc(CC(=O)O)c(F)c2)cc(C(=O)OC(C)C)c1 , thanks.
RESULT: 6.66

QUERY: I have this compound here, C#CCc1c(C)c(C#Cc2ccc(CC(=O)O)cc2)cc(C(C)(C)C)c1OC(C)C , and I need its recorded pIC50.
RESULT: 7.00

---

molecular target: UniProtKB P10826; experiment: RAR β EC50/(efficacy); assay type: cell-based; conditions: value in brackets of cell EC50/(EFFICACY)/Kd
Sequence (P10826 whole entry): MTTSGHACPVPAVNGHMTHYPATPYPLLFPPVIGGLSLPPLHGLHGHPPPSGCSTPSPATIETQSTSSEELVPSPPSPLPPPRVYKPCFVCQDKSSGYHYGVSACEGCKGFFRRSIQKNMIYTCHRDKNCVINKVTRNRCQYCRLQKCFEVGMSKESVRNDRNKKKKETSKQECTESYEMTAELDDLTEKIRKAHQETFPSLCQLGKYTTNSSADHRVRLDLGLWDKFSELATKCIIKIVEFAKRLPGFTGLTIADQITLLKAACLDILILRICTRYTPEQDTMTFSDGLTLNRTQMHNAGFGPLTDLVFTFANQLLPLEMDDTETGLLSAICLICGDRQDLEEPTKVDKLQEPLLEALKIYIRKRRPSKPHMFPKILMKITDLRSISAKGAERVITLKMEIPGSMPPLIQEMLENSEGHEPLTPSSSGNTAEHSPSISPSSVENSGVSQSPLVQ
measured-attribute: RAR β (EFFICACY)
Could you keep your reply to the number by itself?

compound | RAR β (EFFICACY)
Cc1ccc(C(C)(C)C)cc1C#Cc1ccc(/C=C/C(=O)O)cc1 | 40
Cc1ccc(CN(C)C2CC2)cc1C#Cc1ccc(/C=C/C(=O)O)cc1 | 20
C=Cc1cc(C#Cc2ccc(CC(=O)O)cc2)cc2c1C(N(C)C1CC1)CCC2(C)C (stereo not shown) | 40

QUERY: Fill in: RAR β (EFFICACY) of CC(C(=O)O)c1ccc(C#Cc2cc(CN(C)C3CC3)c3c(c2)C(C)(C)CC(C)(C)O3)cc1 (stereo not shown) is ___
RESULT: 15

---

Measured pKd accompanies every entry in the list below.
molecular target: RAR γ (Homo sapiens, UniProt P13631); assay: RAR γ Kd; type: binding; details: last item of cell EC50/(EFFICACY)/Kd
Sequence (P13631 whole entry): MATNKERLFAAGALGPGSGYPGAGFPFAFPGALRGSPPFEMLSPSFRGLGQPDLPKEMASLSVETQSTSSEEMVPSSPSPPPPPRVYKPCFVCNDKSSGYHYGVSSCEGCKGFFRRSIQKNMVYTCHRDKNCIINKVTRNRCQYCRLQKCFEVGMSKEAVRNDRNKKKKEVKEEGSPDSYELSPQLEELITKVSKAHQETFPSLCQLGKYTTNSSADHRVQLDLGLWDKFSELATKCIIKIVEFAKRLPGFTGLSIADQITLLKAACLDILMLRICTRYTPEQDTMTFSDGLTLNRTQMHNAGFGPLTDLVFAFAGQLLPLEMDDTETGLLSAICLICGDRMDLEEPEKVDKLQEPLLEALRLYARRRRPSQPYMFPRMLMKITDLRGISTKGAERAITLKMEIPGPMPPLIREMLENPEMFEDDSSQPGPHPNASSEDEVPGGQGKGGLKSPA
pKd: −log10 of the molar value.

compound | measured-attribute | result
CC1(C)CC2(CC2)Oc2c(C3CC3)cc(NC(=O)Nc3ccc(C(=O)O)cc3)cc21 [Compound 5] | pKd | < 5.00
COc1cc(C#Cc2ccc(/C=C/C(=O)O)cc2)cc2c1C(N(C)C1CC1)CCC2(C)C (stereo not drawn) [Compound 29] | pKd | < 5.00
CC(C)OC(=O)c1ccc(C#Cc2ccc(CC(=O)O)c(F)c2)cc1CN(C)C1CC1 [Compound 39] | pKd | < 5.00
CN(C1CC1)C1CCC(C)(C)c2cc(C#Cc3ccc(C(C)(C)C(=O)O)cc3)ccc21 (stereo not drawn) [Compound 52] | pKd | < 5.00
C#CCc1c(C)c(C#Cc2ccc(CC(=O)O)cc2)cc(C(C)(C)C)c1OC(C)C [Compound 47] | pKd | 5.71
C/C(=C\c1ccc(C#Cc2cc(C3CC3)c3c(c2)C(C)(C)CC2(CC2)O3)cc1)C(=O)O [Compound 3] | pKd | 5.22

QUERY: Field: pKd (RAR γ (Homo sapiens, UniProt P13631)). Entry: CC(C)OC(=O)c1ccc(C#Cc2ccc(CC(=O)O)cc2)cc1CN(C)C1CC1 [Compound 38]
RESULT: < 5.00

QUERY: Please state recorded pKd (tested on RAR γ (Homo sapiens, UniProt P13631)) of CC(C)(C)c1cccc(C#Cc2ccc(/C=C/C(=O)O)cc2)c1 [Compound 35]
RESULT: 5.54

QUERY: I'm curious: which pKd was measured for CCc1cc(C#Cc2ccc(C(C)(C)C(=O)O)cc2)cc2c1C(N(C)C1CC1)CCC2(C)C (stereo not drawn) [Compound 54] tested on RAR γ (Homo sapiens, UniProt P13631)?
RESULT: < 5.00
